So I've got a bunch of variants here, and I need their abundance fitness values.
B1: Syntaxin-binding protein 4, residues 493 to 538; numbered along this chain, Q6ZWJ1 (parent)
chain: LDMDCLPYGWEEAYTADGIKYFINHVTQTTSWIHPVMSVLNLSRSE

Variants of: B1
test_details: abundance fitness (aPCA) (normalised: wild type 0, dead -1); higher = more abundant; growth selection in yeast, the domain comes from the species named
conditions_used: Homo sapiens
Write the number on its own, no unit after it.

GET /value?item= S43L &field=abundance fitness returns -0.698

Briefly, abundance fitness measured for N41G : -0.215

The measured abundance fitness associated with S43M reads -0.75

Per the records, this variant ( T29Y ) has abundance fitness equal to -0.61

# abundance fitness of V36H = 0.224

Consider T30S . Its measured abundance fitness is 0.363

abundance fitness recorded for this variant, N24T , is -0.909

The reported abundance fitness of the variant S31V was -0.373

Input S43E . Output abundance fitness: 0.119

Given item T30L , the value recorded as its abundance fitness is -0.512

Short answer for Y8R : abundance fitness was -0.34

In plain terms, I19R has a documented abundance fitness of 0.428

Entry L6A — recorded abundance fitness = -0.707

Sample L1S ; abundance fitness observed: 0.28

Value of measured abundance fitness for the entry W10I : -0.596

abundance fitness measured on A13E = -0.923

# variant E46S ; its abundance fitness = -0.582

// abundance fitness lookup, variant = W10M , result: -0.918

get_value(item= M37A , readout=abundance fitness) returns 0.219

Recorded result, S43Y , abundance fitness: -0.876

The reported abundance fitness of the variant K20F was -0.919

Value of measured abundance fitness for the entry C5G : -0.04

Sure, the documented abundance fitness for I19T is 0.234

Reported abundance fitness of Y21T : -0.93

So for T30E , the logged abundance fitness turned out to be -0.857

H34I has a reported abundance fitness of -0.724

Note to self: abundance fitness recorded for V26Q was -0.004

abundance fitness in this record for I23F : -0.715

Field abundance fitness (entry S31E ) reads -0.724

# variant H25F ; its abundance fitness = -0.514

Short answer for V26K : abundance fitness was -0.29

// recorded abundance fitness for S31L : -0.788

Recorded abundance fitness (variant E12P ): -0.795

Input F22I . Output abundance fitness: -0.728

Recorded abundance fitness (variant S38P ): -0.141

Record N24E , field abundance fitness: -0.715

Form field abundance fitness, entry T29F : -0.674

For reference, reported abundance fitness for I33S stands at 0.1

For reference, reported abundance fitness for H25S stands at -0.006

// abundance fitness value for S43I : -0.606

// N24L : abundance fitness value = -0.932

Lookup result for F22T ; measured abundance fitness: -0.458

Data point: P35Y ; abundance fitness = -0.369

Briefly, abundance fitness measured for T27E : -0.672

Noted for W32F : its abundance fitness reads -0.558

The reported abundance fitness of the variant N24V was -0.74

Looking up V36G , I found its abundance fitness recorded as 0.528

V26W yielded abundance fitness of -0.846

So for W10G , the logged abundance fitness turned out to be -0.716

# abundance fitness (variant: T29H ) is -0.847

Short answer for A13S : abundance fitness was -0.5

Recorded result, D4S , abundance fitness: -0.221

# variant A16L ; its abundance fitness = -0.649

Given item E12G , the value recorded as its abundance fitness is -0.818

Note to self: abundance fitness recorded for T27N was -0.407

Measured abundance fitness, T15A : -0.801

# abundance fitness (variant: L40D ) is -0.471

For this variant ( A16N ), measured abundance fitness is -0.283

Per the records, this variant ( I19Y ) has abundance fitness equal to -0.034

The variant listed as T15E has a reported abundance fitness of -0.859

Entry V39R — recorded abundance fitness = -0.083

// abundance fitness value for P7K : -0.649

The reported abundance fitness of the variant V26I was -0.038

Note to self: abundance fitness recorded for S38T was -0.75

For reference, reported abundance fitness for T30I stands at -0.936

Please fill in: abundance fitness reported for L40W = -0.136

Looking up N41W , I found its abundance fitness recorded as -0.197

Item: Y14T | abundance fitness: -0.522

Sure, the documented abundance fitness for Q28W is -0.695

Reported abundance fitness ( A16M ) = -0.5

For record L6G the listed abundance fitness is -0.754

So, W10A ? Its abundance fitness was -0.667

M37E yielded abundance fitness of 0.327

G18Q has a reported abundance fitness of -0.661
